- METHOD SUMMARY: melting temperature; melt of duplexes
- STATED CONDITIONS: sodium 0.0675 M; strand 1 µM
MEASUREMENT KIND: Tm (°C)

INSERT INTO results (substance, numeric_readout) VALUES
  ('CGACGTGCTGCATGTGCTG+CAGCACATGCGGCACGTCG ((((((((.((((((((((+)))))))))).))))))))', 63),
  ('CGACGTGCCCCATGTGCTG+CAGCACATGAAGCACGTCG ((((((((..(((((((((+)))))))))..))))))))', 52),
  ('CGACGTGCCTGATGTGCTG+CAGCACATCTTGCACGTCG ((((((((..(((((((((+)))))))))..))))))))', 53.7),
  ('CGACGTGCACTATGTGCTG+CAGCACATGACGCACGTCG ((((((((...((((((((+))))))))...))))))))', 44.6);

----------
Reported Tm by item:
- METHOD SUMMARY: melting temperature; melt of duplexes
- STATED CONDITIONS: sodium 0.0675 M; strand 1 µM
MEASUREMENT KIND: Tm (°C)

INSERT INTO results (substance, measurement_kind, numeric_readout) VALUES
  ('CGACGTGCCCTATGTGCTG+CAGCACATCTGGCACGTCG (((((((((..((((((((+))))))))..)))))))))', 'Tm', 53.2),
  ('CGACGTGCGCGATGTGCTG+CAGCACATTTTGCACGTCG ((((((((...((((((((+))))))))...))))))))', 'Tm', 48.9),
  ('CGACGTGCCAGATGTGCTG+CAGCACATACCGCACGTCG ((((((((...((((((((+))))))))...))))))))', 'Tm', 47.6),
  ('CGACGTGCCCAATGTGCTG+CAGCACATATAGCACGTCG ((((((((...((((((((+))))))))...))))))))', 'Tm', 48.5),
  ('CGACGTGCCAGATGTGCTG+CAGCACATTCAGCACGTCG ((((((((...((((((((+))))))))...))))))))', 'Tm', 50.7),
  ('CGACGTGCTAGATGTGCTG+CAGCACATACAGCACGTCG (((((((((..((((((((+))))))))..)))))))))', 'Tm', 53.2),
  ('CGACGTGCTCTATGTGCTG+CAGCACATGTGGCACGTCG ((((((((...((((((((+))))))))...))))))))', 'Tm', 50.4),
  ('CGACGTGCATCATGTGCTG+CAGCACATATGGCACGTCG ((((((((...((((((((+))))))))...))))))))', 'Tm', 48.8),
  ('CGACGTGCCTCATGTGCTG+CAGCACATGGCGCACGTCG ((((((((..(((((((((+)))))))))..))))))))', 'Tm', 52.5),
  ('CGACGTGCTCGATGTGCTG+CAGCACATTGTGCACGTCG ((((((((.(.((((((((+)))))))).).))))))))', 'Tm', 51.5),
  ('CGACGTGCAGTATGTGCTG+CAGCACATTATGCACGTCG (((((((((..((((((((+))))))))..)))))))))', 'Tm', 52.4),
  ('CGACGTGCCGCATGTGCTG+CAGCACATACCGCACGTCG ((((((((.(.((((((((+)))))))).).))))))))', 'Tm', 48.9),
  ('CGACGTGCTGGATGTGCTG+CAGCACATTACGCACGTCG ((((((((...((((((((+))))))))...))))))))', 'Tm', 51.1),
  ('CGACGTGCTTAATGTGCTG+CAGCACATCATGCACGTCG ((((((((.(.((((((((+)))))))).).))))))))', 'Tm', 50.3),
  ('CGACGTGCAAGATGTGCTG+CAGCACATCGGGCACGTCG ((((((((..(((((((((+)))))))))..))))))))', 'Tm', 57),
  ('CGACGTGCCCAATGTGCTG+CAGCACATTGAGCACGTCG ((((((((.((((((((((+)))))))))).))))))))', 'Tm', 57.6),
  ('CGACGTGCGAAATGTGCTG+CAGCACATCCTGCACGTCG ((((((((...((((((((+))))))))...))))))))', 'Tm', 49.5),
  ('CGACGTGCGTAATGTGCTG+CAGCACATTGAGCACGTCG ((((((((..(((((((((+)))))))))..))))))))', 'Tm', 56.6),
  ('CGACGTGCATTATGTGCTG+CAGCACATCCGGCACGTCG ((((((((...((((((((+))))))))...))))))))', 'Tm', 47.3),
  ('CGACGTGCGGTATGTGCTG+CAGCACATATGGCACGTCG ((((((((..(((((((((+)))))))))..))))))))', 'Tm', 54),
  ('CGACGTGCACAATGTGCTG+CAGCACATGGAGCACGTCG ((((((((.(.((((((((+)))))))).).))))))))', 'Tm', 52.5),
  ('CGACGTGCTTGATGTGCTG+CAGCACATCCGGCACGTCG ((((((((..(((((((((+)))))))))..))))))))', 'Tm', 54.6),
  ('CGACGTGCCTTATGTGCTG+CAGCACATAGGGCACGTCG (((((((((.(((((((((+))))))))).)))))))))', 'Tm', 57.7),
  ('CGACGTGCTCGATGTGCTG+CAGCACATAGAGCACGTCG ((((((((((.((((((((+)))))))).))))))))))', 'Tm', 59.5),
  ('CGACGTGCATGATGTGCTG+CAGCACATGTCGCACGTCG ((((((((...((((((((+))))))))...))))))))', 'Tm', 48.8),
  ('CGACGTGCAAAATGTGCTG+CAGCACATTTGGCACGTCG ((((((((.((((((((((+)))))))))).))))))))', 'Tm', 57.6),
  ('CGACGTGCCGCATGTGCTG+CAGCACATAATGCACGTCG ((((((((...((((((((+))))))))...))))))))', 'Tm', 47.9),
  ('CGACGTGCCTTATGTGCTG+CAGCACATTACGCACGTCG ((((((((.(.((((((((+)))))))).).))))))))', 'Tm', 47.7),
  ('CGACGTGCAAGATGTGCTG+CAGCACATAACGCACGTCG ((((((((...((((((((+))))))))...))))))))', 'Tm', 48.6);

----------
- METHOD SUMMARY: melting temperature; melt of duplexes
- STATED CONDITIONS: sodium 0.0675 M; strand 1 µM
Response field label: string, one of label 1 (Tm strictly below 60 °C) or label 0.

INSERT INTO assay_data (substance, assigned_label) VALUES
  ('CGACGTGCCAAATGTGCTG+CAGCACATATTGCACGTCG ((((((((.(.((((((((+)))))))).).))))))))', 'label 1'),
  ('CGACGTGCAACATGTGCTG+CAGCACATGCTGCACGTCG (((((((((.(((((((((+))))))))).)))))))))', 'label 1'),
  ('CGACGTGCGGGATGTGCTG+CAGCACATACAGCACGTCG ((((((((.(.((((((((+)))))))).).))))))))', 'label 1'),
  ('CGACGTGCAGCATGTGCTG+CAGCACATGTAGCACGTCG ((((((((..(((((((((+)))))))))..))))))))', 'label 1'),
  ('CGACGTGCGCGATGTGCTG+CAGCACATCCGGCACGTCG ((((((((..(((((((((+)))))))))..))))))))', 'label 1'),
  ('CGACGTGCCGCATGTGCTG+CAGCACATGGGGCACGTCG (((((((((.(((((((((+))))))))).)))))))))', 'label 0');

----------
- METHOD SUMMARY: melting temperature; melt of duplexes
- STATED CONDITIONS: sodium 0.0675 M; strand 1 µM
MEASUREMENT KIND: Tm

INSERT INTO measurements (substance, result) VALUES
  ('CGACGTGCATTATGTGCTG+CAGCACATAAGGCACGTCG ((((((((.((((((((((+)))))))))).))))))))', '56.7 °C'),
  ('CGACGTGCTATATGTGCTG+CAGCACATCCCGCACGTCG ((((((((...((((((((+))))))))...))))))))', '47.2 °C'),
  ('CGACGTGCGCGATGTGCTG+CAGCACATGGGGCACGTCG ((((((((.(.((((((((+)))))))).).))))))))', '55.6 °C'),
  ('CGACGTGCGATATGTGCTG+CAGCACATCCGGCACGTCG ((((((((...((((((((+))))))))...))))))))', '49.3 °C'),
  ('CGACGTGCGTAATGTGCTG+CAGCACATTGTGCACGTCG ((((((((..(((((((((+)))))))))..))))))))', '52 °C'),
  ('CGACGTGCGGTATGTGCTG+CAGCACATAGCGCACGTCG (((((((((.(((((((((+))))))))).)))))))))', '62.5 °C'),
  ('CGACGTGCGCTATGTGCTG+CAGCACATGAAGCACGTCG ((((((((...((((((((+))))))))...))))))))', '53.9 °C');
